Cited source: paper PMC5554913

Readings of half-life at 1.5 µM for the listed compounds
test: Metabolic stability in pooled mouse liver microsomes; assay type: in vitro ADME; conditions: microsome T1/2, mouse microsomes
Use min as the unit, but write only the number.

Q: Record request: half-life at 1.5 µM value, item COc1ccc2c(c1)[C@]13CCCC[C@@H]1[C@H](C2)N(C)CC3
A: 9.51

Next:
Q: Record request: half-life at 1.5 µM value, item C[C@]12CC[C@H]3[C@@H](CCC4=CC(=O)CC[C@@]43C)[C@@H]1CC[C@@H]2O
A: 3.97

###

biological target: CYP3A4 (Homo sapiens)
Sequence (P08684 whole entry, species assumed): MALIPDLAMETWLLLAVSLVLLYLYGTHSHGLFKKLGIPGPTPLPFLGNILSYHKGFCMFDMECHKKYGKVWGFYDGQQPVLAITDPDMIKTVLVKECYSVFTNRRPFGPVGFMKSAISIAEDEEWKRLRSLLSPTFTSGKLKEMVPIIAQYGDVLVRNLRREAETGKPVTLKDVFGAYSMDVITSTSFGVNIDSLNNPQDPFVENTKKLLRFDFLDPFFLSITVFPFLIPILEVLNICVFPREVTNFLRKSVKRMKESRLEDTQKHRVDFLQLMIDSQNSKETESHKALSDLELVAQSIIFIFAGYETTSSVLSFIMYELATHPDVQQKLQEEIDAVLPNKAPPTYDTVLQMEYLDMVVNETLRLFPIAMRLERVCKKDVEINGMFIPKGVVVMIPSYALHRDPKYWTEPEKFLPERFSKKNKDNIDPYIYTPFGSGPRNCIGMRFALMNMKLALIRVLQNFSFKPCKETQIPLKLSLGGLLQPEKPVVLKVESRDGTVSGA
ATTRIBUTE_MEASURED: pIC50
Worth noting: pIC50 values are minus log10 of concentrations stated in mol/L.

Q: Record request: pIC50 value, item CN(C)c1ccc(N2C(=O)CN(Cc3ccc(F)cc3)C2=S)cc1Cl [Compound 68]
A: 4.89
